- Test summary: In vitro conversion of pro-drug to parent compound by intestinal S9 fraction (dog)
- Format: in vitro ADME
- Condition context: beagle, pooled intestinal S9 fraction, dog intestinal S9, − cofactor, 37° C., read-out: T1/2 of conversion to the parent compound
Measured metric: half-life at 1 μM (min)
Reply numerically in min, unit not repeated.

Entry CNC(=O)[C@@H](O)COc1ncc(Cl)c2c1c(=O)cc(C)n2-c1c(Cl)cc(OCCOP(=O)(O)O)cc1Cl.[Ca] [Example 1a] , half-life at 1 μM reported as 46

----------
Property: IC50; scope: individual compounds
- Study target: GIRK1/4 (Homo sapiens, UniProt P48544+P48549)
- Sequence (P48549 1-501): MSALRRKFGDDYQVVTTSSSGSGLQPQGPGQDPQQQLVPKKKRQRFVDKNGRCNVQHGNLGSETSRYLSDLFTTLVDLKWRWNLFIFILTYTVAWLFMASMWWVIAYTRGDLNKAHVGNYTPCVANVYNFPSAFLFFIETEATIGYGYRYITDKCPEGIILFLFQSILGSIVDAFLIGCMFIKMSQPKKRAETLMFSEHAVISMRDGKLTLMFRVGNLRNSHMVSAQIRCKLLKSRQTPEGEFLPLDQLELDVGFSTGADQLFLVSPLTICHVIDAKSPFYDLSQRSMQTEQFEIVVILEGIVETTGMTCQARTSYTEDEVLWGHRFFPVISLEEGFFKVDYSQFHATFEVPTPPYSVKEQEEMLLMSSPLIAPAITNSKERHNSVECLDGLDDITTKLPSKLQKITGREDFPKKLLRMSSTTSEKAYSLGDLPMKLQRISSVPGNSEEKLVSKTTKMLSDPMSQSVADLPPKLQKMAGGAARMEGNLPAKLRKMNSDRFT
- Sequence (P48544 1-419): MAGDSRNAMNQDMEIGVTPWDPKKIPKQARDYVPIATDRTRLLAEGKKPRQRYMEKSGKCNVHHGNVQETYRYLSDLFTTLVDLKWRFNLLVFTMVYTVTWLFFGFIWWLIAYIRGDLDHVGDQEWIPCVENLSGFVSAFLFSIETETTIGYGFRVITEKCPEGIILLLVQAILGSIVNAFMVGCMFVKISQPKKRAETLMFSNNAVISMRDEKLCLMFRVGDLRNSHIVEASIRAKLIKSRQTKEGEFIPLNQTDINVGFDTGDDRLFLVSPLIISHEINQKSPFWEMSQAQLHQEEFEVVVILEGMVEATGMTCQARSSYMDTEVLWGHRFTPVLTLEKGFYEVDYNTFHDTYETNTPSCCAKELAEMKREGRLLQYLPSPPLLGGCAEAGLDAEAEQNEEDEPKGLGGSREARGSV
- Test summary: GIRK1/4 in vitro activity assay (IonWorks Quattro population patch clamp)
- Condition context: GIRK 1/4 HEK293 stable cells, inward potassium current; read-out: inhibitory activity (IC50)

CNC(=O)[C@@H](O)COc1ncc(Cl)c2c1c(=O)cc(C)n2-c1c(Cl)cc(OCCOP(=O)(O)O)cc1Cl : > 10 µM

Entry `CNC(=O)[C@H](COc1ncc(Cl)c2c1c(=O)cc(C)n2-c1c(Cl)cc(OCCO)cc1Cl)OP(=O)(O)O` , IC50 reported as > 10 µM
